- Assayed System: human GLP-1 receptor (GLP-1R) (human, UniProt P43220 24-463)
- Assay: cell-based or functional assay
*1 amine or outer side, *2 acyl side, *3 side chain or, on linkers, in order; H or OH if unused. Primed or numbered codes have the meaning given here. Where no end group is shown, it is not given here. Side-chain parts run from the residue outwards. [ ]: non-standard residue; d: D form. The star is where a group is joined. PEG4′ = 4 PEG units (K(PEGxpalm): Lys with x PEG units and palmitoyl at epsilon N, C-terminal (PEG)4); γGlu = O=C(O)[C@H](CCC(=O)[*:2])N[*:1]; Palmitoyl = CCCCCCCCCCCCCCCC(=O)*
Outcome Measure: cAMP activity, GLP1 EC50 nM (nM)
Report as a plain number; the unit nM is understood.

Binder	Unit Of Measure	cAMP activity, GLP1 EC50 nM
HXQGTFTSDYSKYLDSXRAQDFVQWLV (alpha-amino-iso-butyric acid (Aib) at 2; K(PEG4-palm) at 17; C-terminal PEG4) [g501]	nM	0.03
HSQGTFTSDYSKYLDSRK([γGlu-Palmitoyl])AQDFVQWLV[PEG4′] [g422]	nM	0.2

Query string: Which cAMP activity, GLP1 EC50 nM is reported for this binder? HGQGTFTSDYSKYLDSXRAQDFVQWLV (not fully specified; K(PEG4-palm) at 17; C-terminal PEG4) [g431]
Result string: 0.006

Query string: // next record HSQGTFTSDYSRYLDSK([γGlu-Palmitoyl])RARDFVAWLV[PEG4′] [g827]
Result string: 0.2

Query string: // next record HGQGTFTSDYSRYLDSK([γGlu-Palmitoyl])RARDFVEWLV[PEG4′] [g719]
Result string: 0.09

Query string: // next record HSQGTFTSDYSKYLDSRRAQDFVQWLV (C-terminal 11-aminoundecanoic acid (Aud)) [g358]
Result string: 3.2
